Tested on: PTPN2
Assay: HiBiT-Degradation B16F10.4 PTPN2
Format: cell-based
Settings: B16F10.4 cells, 24.0 hours
Measured DC50 of individual entries

molecule	DC50
Cn1c(=O)n(C2CCC(=O)NC2=O)c2ccc(C3CCN(CCn4cc(-c5ccc6c(F)c(N7CC(=O)NS7(=O)=O)c(O)cc6c5)cn4)CC3)cc21 (centres unmarked)	0.2 to 1 µM
Cn1c(=O)n(C2CCC(=O)NC2=O)c2ccc(C3CCN(CCC(=O)Nc4ccc5c(F)c(N6CC(=O)NS6(=O)=O)c(O)cc5c4)CC3)cc21 (centres unmarked)	0.05 to 0.2 µM
O=C(CCOCCNC(=O)CNc1cccc2c1CN(C1CCC(=O)NC1=O)C2=O)NCCOc1ccc2cc(O)c(N3CC(=O)NS3(=O)=O)c(F)c2c1 (centres unmarked)	≥ 1 µM
Cn1nc(C2CCC(=O)NC2=O)c2ccc(C3CCN(CCn4cc(-c5ccc6c(F)c(N7CC(=O)NS7(=O)=O)c(O)cc6c5)cn4)CC3)cc21 (centres unmarked)	0.2 to 1 µM
Cn1c(=O)n(C2CCC(=O)NC2=O)c2cccc(C3CCN(CCOCCC(=O)NCCOc4ccc5cc(O)c(N6CC(=O)NS6(=O)=O)c(F)c5c4)CC3)c21 (centres unmarked)	≥ 1 µM
Cn1c(=O)n(C2CCC(=O)NC2=O)c2ccc(N3CCC4(CC3)CN(C(=O)c3ccc5c(F)c(N6CC(=O)NS6(=O)=O)c(O)cc5c3)C4)cc21 (centres unmarked)	0.2 to 1 µM
Cn1c(=O)n(C2CCC(=O)NC2=O)c2ccc(C3CCN(CC4CC4C(=O)Nc4ccc5c(F)c(N6CC(=O)NS6(=O)=O)c(O)cc5c4)CC3)cc21 (centres unmarked)	0.05 to 0.2 µM
O=C1CCC(N2C(=O)c3cccc(NCc4cnn(CCC(=O)Nc5ccc6c(F)c(N7CC(=O)NS7(=O)=O)c(O)cc6c5)c4)c3C2=O)C(=O)N1 (centres unmarked)	≥ 1 µM
O=C1CCC(N2Cc3c(NCC(=O)N4CCC(C(=O)NCCOc5ccc6cc(O)c(N7CC(=O)NS7(=O)=O)c(F)c6c5)CC4)cccc3C2=O)C(=O)N1 (centres unmarked)	0.2 to 1 µM
O=C1CCC(N2C(=O)c3ccc(NCc4cnn(C5CN(C(=O)Nc6ccc7c(F)c(N8CC(=O)NS8(=O)=O)c(O)cc7c6)C5)c4)cc3C2=O)C(=O)N1 (centres unmarked)	≥ 1 µM
Cn1c(=O)n(C2CCC(=O)NC2=O)c2ccc(C3CCN(CCC(=O)N4CC=C(c5ccc6cc(O)c(N7CC(=O)NS7(=O)=O)c(F)c6c5)C4)CC3)cc21 (centres unmarked)	0.05 to 0.2 µM
O=C(CCOCCOCCNC(=O)CNc1cccc2c1CN(C1CCC(=O)NC1=O)C2=O)NCCOc1ccc2cc(O)c(N3CC(=O)NS3(=O)=O)c(F)c2c1 (centres unmarked)	≥ 1 µM
O=C(CN1CCC(c2ccc(NC3CCC(=O)NC3=O)cc2F)CC1)NCCOc1ccc2cc(O)c(N3CC(=O)NS3(=O)=O)c(F)c2c1 (centres unmarked)	≥ 1 µM
O=C(CCOCCC(=O)N1CCN(c2ccc(NC3CCC(=O)NC3=O)cc2)CC1)NCCOc1ccc2cc(O)c(N3CC(=O)NS3(=O)=O)c(F)c2c1 (centres unmarked)	≥ 1 µM
Cn1c(=O)n(C2CCC(=O)NC2=O)c2ccc(C3CCN([C@H](CO)C(=O)Nc4ccc5c(F)c(N6CC(=O)NS6(=O)=O)c(O)cc5c4)CC3)cc21 (some centres unmarked)	0.01 to 0.05 µM
Cn1c(=O)n(C2CCC(=O)NC2=O)c2ccc(C3CCN(C4CC(C(=O)Nc5ccc6c(F)c(N7CC(=O)NS7(=O)=O)c(O)cc6c5)C4)CC3)cc21 (centres unmarked)	0.05 to 0.2 µM
Cn1c(=O)n([C@H]2CCC(=O)NC2=O)c2ccc(C3CCN(CC(=O)NCCOc4ccc5cc(O)c(N6CC(=O)NS6(=O)=O)c(F)c5c4)CC3)cc21	0.05 to 0.2 µM
Cn1c(=O)n(C2CCC(=O)NC2=O)c2ccc(C3CN(CC(=O)NCCOc4ccc5cc(O)c(N6CC(=O)NS6(=O)=O)c(F)c5c4)C3)cc21 (centres unmarked)	0.2 to 1 µM
CN(c1ccc(C2CCN(CC(=O)Nc3ccc4c(F)c(N5CC(=O)NS5(=O)=O)c(O)cc4c3)CC2)cc1)C1CCC(=O)NC1=O (centres unmarked)	≥ 1 µM
Cn1c(=O)n(C2CCC(=O)NC2=O)c2ccc(C3CCN(Cc4cnn(-c5ccc6cc(O)c(N7CC(=O)NS7(=O)=O)c(F)c6c5)c4)CC3)cc21 (centres unmarked)	0.2 to 1 µM
O=C1CCC(N2Cc3c(OCC(=O)N4CCC(C(=O)N5CC(Oc6ccc7cc(O)c(N8CC(=O)NS8(=O)=O)c(F)c7c6)C5)CC4)cccc3C2=O)C(=O)N1 (centres unmarked)	0.2 to 1 µM
Cn1c(=O)n(C2CCC(=O)NC2=O)c2ccc(C3CCN(CC(=O)Nc4ccc5c(F)c(N6CC(=O)NS6(=O)=O)c(O)cc5c4)CC3(F)F)cc21 (centres unmarked)	0.05 to 0.2 µM
Cn1c(=O)n(C2CCC(=O)NC2=O)c2ccc(-c3ccc(CNC(=O)c4ccc5c(F)c(N6CC(=O)NS6(=O)=O)c(O)cc5c4)cc3)cc21 (centres unmarked)	0.2 to 1 µM
